Sourced from ChEMBL document CHEMBL1201862

system: DMS-273; test: NCI tumour cell line growth inhibition, 48 h
Activity calls are given as the source filed them. No stated cut-off is given here; in the data, active = GI50 up to about 1.1 µM and inactive = higher.
Classes used: active, inactive

{"columns": ["MOLECULE", "CLASSIFICATION"],
 "data": [
  ["COc1cc2c(cc1O)C(C)Cc1cc3c(cc1N(C)CC2)OCO3 (configuration not stated)", "inactive"],
  ["O=C(NN1C(=O)CS(=O)(=O)C1c1cccc(F)c1)c1ccncc1 (configuration not stated)", "inactive"],
  ["Cc1[nH]c2ccccc2c1-c1n[nH]c(=O)c2ccccc12", "inactive"],
  ["Cc1ccc(C(=O)Nc2ccccc2)cc1/N=N/N(C)C", "inactive"],
  ["COC1(OC)c2ccccc2C2(O)c3ccccc3C(=O)C12 (configuration not stated)", "inactive"],
  ["O=C(CCC(=O)Nc1cccc(C(F)(F)F)c1)CC(=O)c1ccc2ccccc2c1", "inactive"],
  ["O=c1n(CC2CO2)c2ccccc2n1CC1CS1 (configuration not stated)", "inactive"],
  ["COc1c(C(=O)O)oc2c(OC)cccc12", "inactive"],
  ["Nc1ccc(C(=O)N/C(=C\\c2ccc3c(c2)OCO3)c2nc3ccc4c(c3[nH]2)C(=O)c2ccccc2C4=O)cc1", "inactive"],
  ["[O-]/[N+](=C\\c1ccccc1)[C@H](COCc1ccccc1)c1ccccc1", "inactive"],
  ["CN1NC(c2ccccc2)=C(C#N)C(=O)CC1c1ccc(F)cc1 (configuration not stated)", "inactive"],
  ["CC(C)(C)c1cc(O)c2c(c1O)C(=O)CCC2", "inactive"],
  ["COc1ccc(C(=O)OC2C=COC(C)C2OC(=O)c2ccc(OC)cc2)cc1 (configuration not stated)", "inactive"],
  ["CCOC(=O)NC(=O)c1cn(CCN2CCN(C(=O)CCCCCCCCCCNc3ncnc4[nH]cnc34)CC2)c(=O)[nH]c1=O", "inactive"],
  ["O=S(=O)(N/N=C/c1cccc(/C=N/NS(=O)(=O)c2ccccc2)c1)c1ccccc1", "inactive"],
  ["COc1ccc(/C=C/C(=O)c2c(-c3ccccc3)nn(C)c(=O)c2N2CCCC2)cc1", "inactive"],
  ["CC1=CCC[C@@]2(C)C(CC[C@@H]2C(C)/C=C/C(C)C)c2ccc(cc2C(=O)O)C[C@@H](O)CC1 (some centres not stated)", "inactive"],
  ["CN1CCN(CCCN2c3ccccc3Sc3ccc(C(F)(F)F)cc32)CC1", "inactive"],
  ["O=C(/C=C\\c1cccc2ccccc12)c1ccc(Cl)cc1Cl", "inactive"],
  ["O=C(Nc1ccccc1)c1ccc(Cl)c([N+](=O)[O-])c1", "inactive"],
  ["O=c1c2ccccc2[nH]c2cc(O)cc(O)c12", "inactive"],
  ["CCOC(=O)N[C@H]1CCc2cc(OC)c(OC)c(OC)c2-c2ccc(SC)c(=O)cc21", "active"]
]}
